System: SARS-CoV-2 (USA-WA1/2020) in Calu-3 cells
Type: cell-based
Settings: low dose (100 nM), Calu-3, 48 h
Where a name gives a salt, the structure may show the parent alone.
Class 1 (yes): dsRNA signal, AU Low at least 20000 AU. Class 0 (no): dsRNA signal, AU Low below 20000 AU.

>>> answer_label("Oc1cccc(-c2nc(N3CCOCC3)c3oc4ncccc4c3n2)c1")
"1 (yes)"

Prompt line: Form field: dsRNA signal, AU Low at least 20000 AU? Entry: N#C/C(=C(/N)Sc1ccc(N)cc1)c1ccccc1C(F)(F)F
Response line: 1 (yes)

Prompt line: Hi, just wondering whether O=C(/C=C/c1ccc(O)c(O)c1)c1ccc(O)cc1O shows dsRNA signal, AU Low of 20000 AU or higher.
Response line: 0 (no)

Prompt line: Hello, I need to know if CN(C)C/C=C/C(=O)Nc1cc2c(Nc3ccc(F)c(Cl)c3)ncnc2cc1O[C@H]1CCOC1 [Afatinib (BIBW2992)] has measured dsRNA signal, AU Low not below 20000 AU. Thanks!
Response line: 0 (no)

Prompt line: # check: dsRNA signal, AU Low of Cc1nc(Nc2cnn(C3CCNCC3)c2)nc2c1N(C)C(=O)c1cc3ccccc3cc1N2C is greater than or equal to 20000 AU
Response line: 1 (yes)

Prompt line: Test whether the compound CC(C)[C@H](CO)Nc1nc(Nc2ccc(C(=O)O)c(Cl)c2)c2ncn(C(C)C)c2n1 records dsRNA signal, AU Low of 20000 AU or higher.
Response line: 0 (no)

Prompt line: Has C[C@@H]1CN(CC(=O)Nc2ccc3c(c2)Cc2cccc(-c4cc(=O)cc(N5CCOCC5)o4)c2S3)C[C@H](C)O1 a recorded dsRNA signal, AU Low greater than or equal to 20000 AU?
Response line: 0 (no)

Prompt line: Answer whether dsRNA signal, AU Low of COc1ccc(C(=O)Nc2sc3c(c2C(N)=O)CCCC3)cc1OC is greater than or equal to 20000 AU.
Response line: 1 (yes)

Prompt line: Quick check: does COc1cc(Oc2ccnc3cc(OC)c(OC)cc23)ccc1NC(=O)NC(C)c1nccs1 (centres unmarked) have dsRNA signal, AU Low greater than or equal to 20000 AU?
Response line: 0 (no)

Prompt line: Item COc1ccc(COc2cc3oc(=O)c4cc(C(C)O)ccc4c3cc2OC)cc1 (centres unmarked) with dsRNA signal, AU Low of 20000 AU or above?
Response line: 0 (no)

Prompt line: API: above_or_equal(metric=dsRNA signal, AU Low, cutoff=20000 AU) for item COc1cc(Nc2ncc3c(n2)-c2ccc(Cl)cc2C(c2c(F)cccc2OC)=NC3)ccc1C(=O)O
Response line: 1 (yes)

Prompt line: Form field: dsRNA signal, AU Low at least 20000 AU? Entry: CC(C)NC(=O)COc1cccc(-c2nc(Nc3ccc4[nH]ncc4c3)c3ccccc3n2)c1
Response line: 1 (yes)

Prompt line: Kindly determine if dsRNA signal, AU Low recorded for O=C(Nc1cccc(Cl)c1)Nc1ncc(CCNc2ncnc3ccsc23)s1 [SNS-314 Mesylate] is above or exactly 20000 AU.
Response line: 1 (yes)

Prompt line: Tell me whether dsRNA signal, AU Low is at least 20000 AU here: COc1ccc2c(c[n+](C)c3c4cc5c(cc4ccc23)OCO5)c1OC [Chelerythrine Chloride]
Response line: 1 (yes)

Prompt line: Entry CN1CCCN(C(=O)c2cccc(-c3ccc(/C=C4/C(=O)Nc5ccc(Cl)cc54)o3)c2)CC1 : is its dsRNA signal, AU Low no less than 20000 AU?
Response line: 0 (no)

Prompt line: Evaluate N#Cc1ccc2[nH]c(O)c(-c3ccc(CN4CCOCC4)cn3)c2c1 : dsRNA signal, AU Low at minimum 20000 AU?
Response line: 0 (no)

Prompt line: Check the entry CCOc1cc(N2CCC(O)CC2)ccc1Nc1ncc2c(n1)N(C)c1ccccc1C(=O)N2C : does dsRNA signal, AU Low equal or exceed 20000 AU?
Response line: 1 (yes)
